# tested-target: IRE1α (Homo sapiens (Human), UniProt O75460, D688N)
# Sequence (O75460 547-977 D688N): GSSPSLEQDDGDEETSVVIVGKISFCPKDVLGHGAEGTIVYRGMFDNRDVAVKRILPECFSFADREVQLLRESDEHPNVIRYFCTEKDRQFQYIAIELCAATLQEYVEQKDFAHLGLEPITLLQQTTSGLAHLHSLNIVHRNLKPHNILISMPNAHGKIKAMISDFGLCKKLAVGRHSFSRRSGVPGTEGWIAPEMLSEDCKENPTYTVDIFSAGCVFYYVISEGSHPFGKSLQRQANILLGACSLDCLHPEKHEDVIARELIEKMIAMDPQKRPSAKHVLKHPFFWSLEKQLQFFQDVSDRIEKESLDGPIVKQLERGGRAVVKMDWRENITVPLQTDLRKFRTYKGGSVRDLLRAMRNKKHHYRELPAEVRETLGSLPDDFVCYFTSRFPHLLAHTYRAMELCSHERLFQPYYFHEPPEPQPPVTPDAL
# measurement-protocol: IRE1α TR-FRET competition binding assay (IRE1α HTRF)
# setup-conditions: TR-FRET competition binding to kinase domain of IRE1α
parameter: IC50 (nM)

CC(C)n1c(=O)c(-c2cc(F)c(NS(=O)(=O)Cc3ccccc3)c(F)c2)nc2cnc(N[C@@H]3CNC[C@@H](F)C3)nc21 [Compound 45] :: 0.22

a. CC(C)n1c(=O)c(-c2ccc(NS(=O)(=O)[C@@H]3C[C@H]3c3ccccc3)c(F)c2)nc2cnc(N[C@H]3CC[C@H](N(C)C)CC3)nc21 [Example 274]
b. Cn1c(=O)c(-c2ccc(NS(=O)(=O)Cc3ccccc3)c(F)c2F)cc2cnc(N[C@H]3CCCNC3)nc21 [Compound 1]
Two entries are listed, a and b . Which one carries the higher IC50? Field: selected label. Fill in the label of the entry you choose. b
(b: 2.8 nM, a: 0.2 nM)

###

# tested-target: IRE1α (Homo sapiens (Human), UniProt O75460, D688N)
# measurement-protocol: IRE1α TR-FRET competition binding assay (IRE1α HTRF)
# setup-conditions: TR-FRET competition binding to kinase domain of IRE1α
Where a name gives a salt, the structure may show the parent alone.
parameter: IC50 (nM)

a. CC(C)n1c(=O)c(-c2ccc(NS(=O)(=O)c3ccccc3OC(F)(F)F)nc2)cc2cnc(N[C@H]3CC[C@H](N(C)C)CC3)nc21 [Compound 150]
b. CCn1c(=O)c(-c2cc(NS(=O)(=O)Cc3ccccc3)nn2C)cc2cnc(N[C@@H]3CNC[C@@H](F)C3)nc21 [Compound 69]
For the pair a and b , which member has the lower IC50 number? Record your answer as the label of the chosen record. a

1. CC(C)n1c(=O)c(-c2ccc(NS(=O)(=O)CCC(C)(F)F)c(F)c2)nc2cnc(N[C@H]3CC[C@H](N(C)C)CC3)nc21 [Compound 66]
2. CC(C)n1c(=O)c(-c2ccc(NS(=O)(=O)Cc3ccc(C#N)cc3)c(F)c2)nc2cnc(N[C@@H]3CNC[C@@H](F)C3)nc21 [Compound 81]
Smaller IC50 value, 1 vs 2 ? Kindly state the label of the option you pick. 2
(2: 0.1 nM, 1: 0.29 nM)

P. CCn1c(=O)c(-c2cc(F)c(NS(=O)(=O)Cc3ccccn3)c(F)c2F)cc2cnc(N[C@@H]3CNC[C@@H](F)C3)nc21 [Compound 49]
Q. Cc1nc(NS(=O)(=O)c2ccccc2C#N)ccc1-c1nc2cnc(N[C@H]3CC[C@H](N(C)CCF)CC3)nc2n(C(C)C)c1=O [Compound 194]
Of P and Q , which carries the smaller reported IC50 figure? // return label of chosen record Q

I. CC(C)n1c(=O)c(-c2ccc(NS(=O)(=O)Cc3ccccc3)c(F)c2)nc2cnc(N[C@H]3CC[C@H](N(C)CCF)CC3)nc21 [Compound 183]
II. COCCN(C)[C@H]1CC[C@H](Nc2ncc3cc(-c4ccc(NS(=O)(=O)Cc5ccc(F)cc5)c(F)c4)c(=O)n(C(C)C)c3n2)CC1 [Compound 123]
III. CC(C)n1c(=O)c(-c2ccc(NS(=O)(=O)Cc3ccc(F)cc3)c(F)c2)cc2cnc(N[C@H]3CC[C@H](N(C)CCF)CC3)nc21 [Compound 155]
IV. Cn1c(=O)c(-c2cc(F)c(NS(=O)(=O)CCC(F)(F)F)c3ccccc23)cc2cnc(N[C@H]3CCCNC3)nc21 [Compound 7]
Order the 4 compounds from highest to lowest IC50. Put the labels in the requested order and write them down. IV, III, I, II
(IV: 5.9 nM, III: 0.23 nM, I: 0.12 nM, II: 0.05 nM)

A. COc1cccc(CS(=O)(=O)Nc2c(F)cc(-c3cc4cnc(N[C@@H]5CNC[C@@H](F)C5)nc4n(C(C)C)c3=O)c(F)c2F)c1 [Compound 31, hydrochloride]
B. CC(C)n1c(=O)c(-c2ccc(NS(=O)(=O)CC3CC(F)(F)C3)c(F)c2)cc2cnc(N[C@H]3CC[C@H](N(C)C)CC3)nc21 [Compound 151]
Looking only at measured IC50, which entry is lower, A or B ? State the label of the item chosen. A
(A: 0.11 nM, B: 0.19 nM)

a. O=c1c(-c2ccc(NS(=O)(=O)Cc3ccccc3)c(F)c2F)cc2cnc(N[C@@H]3CNC[C@@H](F)C3)nc2n1CC1CC1 [Compound 52, trifluoroacetate salt]
b. COCCN(C)[C@H]1CC[C@H](Nc2ncc3cc(-c4cc(F)c(NS(=O)(=O)Cc5ccc(F)cc5)c(F)c4)c(=O)n(C(C)C)c3n2)CC1 [Compound 122]
Would you mind telling me which has the lower recorded IC50 between a and b ? Returns: label corresponding to the selected item. b
